Test: solvent given as SMILES
Conditions: in C1CCOC1
// NB: equality with 600 nm counts as NOT MET; only emission maximum strictly below is MET

Consider the worked cases shown below.
1) F[B-]1(F)n2c(c3cc4ccccc4cc3c2-c2ccccc2)C=C2c3cc4ccccc4cc3C(c3ccccc3)=[N+]21 = NOT MET
2) O=S1(=O)C(c2cccs2)=C(c2cccs2)c2ccccc21 = MET
3) COc1cc(C2=CC3=C(c4c(C)cc(C)cc4C)c4cc(-c5cc(OC)c(OC)c(OC)c5)c(-c5cc(OC)c(OC)c(OC)c5)n4[B-](F)(F)[N+]3=C2c2cc(OC)c(OC)c(OC)c2)cc(OC)c1OC = NOT MET
4) CC(C)(C)c1ccc(C2=C(c3ccc(C(C)(C)C)cc3)C(c3ccc(C(C)(C)C)cc3)=[N+]3C2=C(c2ccccc2)c2c(-c4ccc(C(C)(C)C)cc4)c(-c4ccc(C(C)(C)C)cc4)c(-c4ccc(C(C)(C)C)cc4)n2[B-]3(F)F)cc1 = NOT MET

Query: Input c1ccc(-c2nc(-c3ccccc3)nc(-c3cc(-n4c5ccccc5c5ccccc54)c(-n4c5ccccc5c5ncccc54)c(-n4c5ccccc5c5ccccc54)c3)n2)cc1 ; condition: emission maximum strictly below 600 nm. Does it hold?
Reply: MET

Query: Input CCCCCCc1ccc2c3c(ccc2c1)O[B-](F)(F)[N+](c1cc([N+]2=Cc4c(ccc5cc(CCCCCC)ccc45)O[B-]2(F)F)cc([N+]2=Cc4c(ccc5cc(CCCCCC)ccc45)O[B-]2(F)F)c1)=C3 ; condition: emission maximum strictly below 600 nm. Does it hold?
Reply: MET

Query: Input Cc1cc(O)c(C(C)C)cc1/N=C/c1ccc(C(F)(F)F)cc1 ; condition: emission maximum strictly below 600 nm. Does it hold?
Reply: MET

----------
Assignment: determine reported emission maximum for the given compounds.
Assay: solvent given as SMILES
Details: in CC#N
Numbers only, in nm.

1. CC(=O)Nc1ccc2ccc3cccc4ccc1c2c34 = 386
2. c1ccc(C2CCN3COc4c5ccccc5c5c6c7c(c2c3c46)C(c2ccccc2)CCN7CO5)cc1 (centres undefined) = 610

Answer for every listed entry: what is its emission maximum? The entries follow.
1. COc1ccc(C(=O)/C=C/c2ccc(N(C)C)cc2)cc1OC
2. COC(=O)c1cc(=O)n(C)c2cc(-c3ccc4c(c3)OCCO4)sc12
3. N#Cc1cccc2c(N)c(-c3nn([C@H]4C[C@H](O)[C@@H](CO)O4)c4ncnc(N)c34)ccc12
4. C[Si](C)(C)[Si](C)(C)c1c2ccccc2cc2ccccc12
5. COC(=O)C(NC(=O)OC(C)(C)C)c1ccc2oc(-c3cc(OC)c(OC)cc3OC)nc2c1 (centres undefined)

Reply:
1: 525; 2: 478; 3: 513; 4: 430; 5: 383

Answer for every listed entry: what is its emission maximum? The entries follow.
1. COc1ccc(-n2nc(C(=O)c3ccc(Cl)cc3)c(N3CCCC3)n2)cc1
2. c1ccc2nc3cccc(-c4ccc(-n5c6ccccc6c6ccccc65)cc4)c3cc2c1
3. CCN(CC)c1ccc(/C=C/c2ccc(-c3ccc(/C=C/c4ccc(N(CC)CC)cc4)s3)s2)cc1
4. CC1(C)CC(NCc2ccc3ccc4cccc5ccc2c3c45)CC(C)(C)N1
5. Fc1ccc(-c2nc3n(c2-c2ccncc2)CCS3)cc1

Reply:
1: 421; 2: 527; 3: 577; 4: 375; 5: 420

Answer for every listed entry: what is its emission maximum? The entries follow.
1. CC1=CC(/C=C/c2ccc(N(C)C)cc2)=[N+]2C1=C(c1ccc(I)cc1)c1c(C)cc(/C=C/c3ccc(N(C)C)cc3)n1[B-]2(F)F
2. CN(C)c1ccc(-c2nc3c(c4c2-c2ccccc2CC4)-c2ccccc2CC3)cc1
3. CCCCN(c1ccccc1)c1ccc2c(c1)C(CC)(CC)c1cc(/C=C/c3ccc(/C=C(\C#N)C(=O)O)s3)ccc1-2

Reply:
768
463
518
